# target system: UniProt:P30543
pKi: −log10 of the molar value.
Could you label it rule met if measured pKi is 8 or higher, and rule not met otherwise?

[in] Decide: is the reported value of pKi for Nc1nc(NC[C@H]2CCCN2Cc2c(F)cccc2F)nc2nc(-c3ccco3)nn12 equal to or greater than 8?
[out] rule met

[in] How about this compound: Cc1cc(CN2CCC[C@H]2CNc2nc(N)n3nc(-c4ccco4)nc3n2)no1
[out] rule not met

[in] How about this compound: Cc1cc(CN2CC[C@H](Nc3nc(N)n4nc(-c5ccco5)nc4n3)C2)no1
[out] rule not met

[in] How about this compound: Nc1nc(NC[C@H]2CCCN2Cc2cc(C(F)(F)F)ccc2F)nc2nc(-c3ccco3)nn12
[out] rule met

[in] How about this compound: Nc1nc(NC[C@H]2CCCN2Cc2c(F)cc(F)cc2F)nc2nc(-c3ccco3)nn12
[out] rule met

[in] How about this compound: Nc1nc(NC[C@H]2CCCN2Cc2cc(Cl)cc(Cl)c2)nc2nc(-c3ccco3)nn12
[out] rule not met

[in] How about this compound: Nc1nc(NC[C@H]2CCCN2Cc2cc(F)cc(F)c2)nc2nc(-c3ccco3)nn12
[out] rule not met

[in] How about this compound: Nc1nc(NC[C@H]2CCCN2Cc2ccc(Cl)o2)nc2nc(-c3ccco3)nn12
[out] rule met

[in] How about this compound: Cc1noc(C)c1CN1CCC[C@@H]1CNc1nc(N)n2nc(-c3ccco3)nc2n1
[out] rule not met

[in] How about this compound: Cc1cc(CN(C)[C@H]2CCCC[C@@H]2N(C)c2nc(N)n3nc(-c4ccco4)nc3n2)no1
[out] rule not met

[in] How about this compound: Cc1cc(CNCCNc2nc(N)n3nc(-c4ccco4)nc3n2)no1
[out] rule not met

[in] How about this compound: Cc1cccc(CN2CCC[C@@H]2CNc2nc(N)n3nc(-c4ccco4)nc3n2)c1
[out] rule not met

----------
System: Adenosine receptor A2a (Rattus norvegicus, UniProt P30543) | Read-out: pKi
Sequence (P30543 whole entry): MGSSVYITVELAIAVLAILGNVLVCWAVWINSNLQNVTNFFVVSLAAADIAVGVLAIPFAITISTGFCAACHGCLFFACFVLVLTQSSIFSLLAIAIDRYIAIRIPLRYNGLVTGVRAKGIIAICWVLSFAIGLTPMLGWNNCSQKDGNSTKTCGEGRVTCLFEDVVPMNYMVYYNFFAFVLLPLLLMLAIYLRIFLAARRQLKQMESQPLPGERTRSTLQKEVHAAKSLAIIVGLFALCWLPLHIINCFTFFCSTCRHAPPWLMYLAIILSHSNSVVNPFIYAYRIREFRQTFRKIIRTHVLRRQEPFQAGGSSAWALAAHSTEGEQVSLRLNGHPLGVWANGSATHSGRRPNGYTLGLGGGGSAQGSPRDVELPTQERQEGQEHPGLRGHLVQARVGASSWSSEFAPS
# pKi is unitless: minus log10 of the molar concentration; print number only

[in] Requested field: pKi. Item: Nc1nc(NC[C@H]2CCCN2Cc2ccccn2)nc2nc(-c3ccco3)nn12
[out] 7.82

[in] How about this compound: Nc1nc(NC[C@H]2CCCN2Cc2cc3ccccc3o2)nc2nc(-c3ccco3)nn12
[out] 7.92

[in] How about this compound: Nc1nc(NC[C@H]2CCCN2Cc2cc(F)c(F)cc2F)nc2nc(-c3ccco3)nn12
[out] 8.10

[in] How about this compound: Nc1nc(NC[C@H]2CCCN2Cc2c(C(F)(F)F)ccc(Cl)c2F)nc2nc(-c3ccco3)nn12
[out] 8.10

[in] How about this compound: Nc1nc(NC[C@H]2CCCN2Cc2cccnc2)nc2nc(-c3ccco3)nn12
[out] 8.15

[in] How about this compound: Cc1cc(CN2CCCC[C@@H]2CN(C)c2nc(N)n3nc(-c4ccco4)nc3n2)no1
[out] 7.85

[in] How about this compound: Nc1nc(NC[C@H]2CCCN2Cc2cccc(Cl)c2F)nc2nc(-c3ccco3)nn12
[out] 8.15

[in] How about this compound: Cn1cc(CN2CCC[C@@H]2CNc2nc(N)n3nc(-c4ccco4)nc3n2)c(Cl)n1
[out] 8.15

[in] How about this compound: Nc1nc(NC[C@H]2CCCN2Cc2ccc(F)cc2F)nc2nc(-c3ccco3)nn12
[out] 7.85

[in] How about this compound: Nc1nc(NC[C@H]2CCCN2Cc2ccc3ccccc3n2)nc2nc(-c3ccco3)nn12
[out] 7.77

[in] How about this compound: Nc1nc(NC[C@H]2CCCN2Cc2cccc(Cl)c2)nc2nc(-c3ccco3)nn12
[out] 7.85
